The values you see were collected from ChEMBL document CHEMBL1138898.

experiment: Binding affinity to alpha-2delta calcium channel
RESULT TYPE: pKi
// pKi is dimensionless: -log10 of concentration (M)

Sample records with pKi:
[
  {
    "MOLECULE": "CC(CN)(Cc1cccc(C(F)(F)F)c1)c1nnn[nH]1 (centres undefined)",
    "pKi": 6.80
  },
  {
    "MOLECULE": "CC(C)CC(CN)c1nnn[nH]1 (centres undefined)",
    "pKi": 7.77
  }
]

Return value of pKi for input NCC(CC1CCCCC1)c1nnn[nH]1 (centres undefined) , no commentary. 6.24

Please supply the value of reported pKi for the item CC(C)C(CN)c1nnn[nH]1 (centres undefined) 6.89

Tell me its pKi given CCC(CC)CC(CN)c1nnn[nH]1 (centres undefined) as the entry. 7.96

Please give the documented pKi of CC(C)CCC(CN)c1nnn[nH]1 (centres undefined) 6.68

Determine its reported pKi: NCC(CCCc1ccccc1)c1nnn[nH]1 (centres undefined) 5.68

Consider the molecule CCCC(CCC)CC(CN)c1nnn[nH]1 (centres undefined) and give its recorded pKi. 6.55

Complete the entry with pKi for CCC(CC)C1CC1(CN)c1nnn[nH]1 (centres undefined) 5.40

// Input: NCC(CCCCCc1ccccc1)c1nnn[nH]1 (centres undefined) . Output its pKi only. 6.30

# return recorded pKi for input NCC1(c2nnn[nH]2)CC12CCCCC2 (centres undefined) 7.48

Fill in reported pKi for this entry: NCC(Cc1ccccc1)c1nnn[nH]1 (centres undefined) 5.12

Consider the molecule CC(CN)(Cc1ccccc1)c1nnn[nH]1 (centres undefined) . State its measured pKi. 6.05

Give the reported pKi for this molecule. NCC(c1nnn[nH]1)C1CCCCC1 (centres undefined) 6.82

# return recorded pKi for entry NCC(c1nnn[nH]1)C1CCCC1 (centres undefined) 7.74

Supply measured pKi of CC(C)C1CC1(CN)c1nnn[nH]1 (centres undefined) in your reply. 6.72

Supply measured pKi of NCC(CCc1ccccc1)c1nnn[nH]1 (centres undefined) in your reply. 5.51
